SYSTEM_NAME: BLT1-T4L
ASSAY_SUMMARY: Competition assay of ligands against ^3H-LTB4, BLT1-T4L expressed in P. pastoris
Can you tell me Ki for the items I'm about to list?
Please don't drop the unit; write it after the number.

# example entries with known answers
Which measured Ki value corresponds to CC(C)(c1ccc(O)cc1)c1ccc(OCc2cccc(COc3ccc(C(=N)N)cc3)c2)cc1 [BIIL260] ?
2.3 nM

What does the data say about its Ki? Entry: CCOC(=O)NC(=N)c1ccc(OCc2cccc(COc3ccc(C(C)(C)c4ccc(O)cc4)cc3)c2)cc1
148 nM

Others:
May I ask what Ki has been recorded for CCCCC/C=C\C[C@@H](O)/C=C/C=C/C=C\[C@@H](O)CCCC(=O)O [LTB4, leukotriene B4] ?
0.67 nM

----------
SYSTEM_NAME: BLT1 V69^2.53A mutant (Cavia porcellus, UniProt H0VYV8, V69A)
Sequence (H0VYV8 1-348 V69A): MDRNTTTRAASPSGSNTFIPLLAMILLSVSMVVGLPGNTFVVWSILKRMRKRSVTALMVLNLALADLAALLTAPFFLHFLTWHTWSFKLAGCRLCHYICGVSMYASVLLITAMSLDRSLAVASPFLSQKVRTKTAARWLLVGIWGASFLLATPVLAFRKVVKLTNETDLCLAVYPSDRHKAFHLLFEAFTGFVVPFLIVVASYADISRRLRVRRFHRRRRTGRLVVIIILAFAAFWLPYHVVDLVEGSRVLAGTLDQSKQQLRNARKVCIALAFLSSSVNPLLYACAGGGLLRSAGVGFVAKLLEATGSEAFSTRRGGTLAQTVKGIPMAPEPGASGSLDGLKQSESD
ASSAY_SUMMARY: Competition binding of BIIL260 to 0.5 nM ^3H-LTB4, BLT1 mutant in HEK293 membrane fraction
RESULT_TYPE: IC50 (nM)
Give bare numbers, in nM.

Given the molecule CC(C)(c1ccc(O)cc1)c1ccc(OCc2cccc(COc3ccc(C(=N)N)cc3)c2)cc1 , what is its reported IC50?
33

----------
SYSTEM_NAME: BLT1 (Cavia porcellus, UniProt H0VYV8)
Sequence (H0VYV8 1-348): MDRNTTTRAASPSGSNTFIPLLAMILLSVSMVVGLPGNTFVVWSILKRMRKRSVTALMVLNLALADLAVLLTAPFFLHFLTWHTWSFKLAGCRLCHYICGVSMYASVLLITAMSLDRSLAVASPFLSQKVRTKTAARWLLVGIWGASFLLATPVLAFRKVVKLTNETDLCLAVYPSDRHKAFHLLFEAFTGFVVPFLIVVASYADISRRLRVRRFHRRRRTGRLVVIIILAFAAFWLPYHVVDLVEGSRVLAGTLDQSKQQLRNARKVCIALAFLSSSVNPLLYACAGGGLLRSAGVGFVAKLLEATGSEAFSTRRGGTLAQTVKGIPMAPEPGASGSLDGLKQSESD
RESULT_TYPE: Kd (nM)
One number for each entry, in nM.

// query Kd value for entry CCCCC/C=C\C[C@@H](O)/C=C/C=C/C=C\[C@@H](O)CCCC(=O)O
0.6
